I'd appreciate it if you could supply melting point values for the items below.

Below, 4 molecules whose answers are already recorded.
CCN/C(=N\S(=O)(=O)c1ccccc1Cl)N1CCC(c2ccccc2)=N1 [compound 138]
138 to 140 °C
CCC1CN(/C(N)=N/S(=O)(=O)c2c(Cl)nc3sccn23)N=C1C (stereo not drawn) [compound 130]
139 to 140 °C
CCC1C=NN(/C(N)=N/S(=O)(=O)c2ccc(Cl)s2)C1 (stereo not drawn) [compound 105]
115 to 116 °C
CCC1C=NN(/C(=N/S(=O)(=O)c2ccccc2Cl)NCC2CCNCC2)C1 (stereo not drawn) [compound 11]
131 to 138 °C

Please report melting point for every entry that follows.
1. N/C(=N\S(=O)(=O)c1c(Cl)nc2sccn12)N1CC2(C=N1)CCCC2 [compound 131]
2. CCC1CN(/C(=N/S(=O)(=O)c2cccc(Cl)c2)NC)N=C1C (stereo not drawn) [compound 109]
3. CC1(C)C=NN(/C(N)=N/S(=O)(=O)c2c(Cl)nc3sccn23)C1 [compound 127]
4. CCC1C=NN(/C(N)=N/S(=O)(=O)c2ccc(C)cc2)C1 (stereo not drawn) [compound 31]
5. CCN/C(=N\S(=O)(=O)c1c(Cl)nc2sccn12)N1CC(C)(C)C=N1 [compound 114]

["174 to 177 °C", "155 to 156 °C", "198 to 199 °C", "131 to 133 °C", "139 to 141 °C"]

----------
- ASSAY_SYSTEM: 5-HT6 receptor (Homo sapiens, UniProt P50406)
- Sequence (P50406 whole entry): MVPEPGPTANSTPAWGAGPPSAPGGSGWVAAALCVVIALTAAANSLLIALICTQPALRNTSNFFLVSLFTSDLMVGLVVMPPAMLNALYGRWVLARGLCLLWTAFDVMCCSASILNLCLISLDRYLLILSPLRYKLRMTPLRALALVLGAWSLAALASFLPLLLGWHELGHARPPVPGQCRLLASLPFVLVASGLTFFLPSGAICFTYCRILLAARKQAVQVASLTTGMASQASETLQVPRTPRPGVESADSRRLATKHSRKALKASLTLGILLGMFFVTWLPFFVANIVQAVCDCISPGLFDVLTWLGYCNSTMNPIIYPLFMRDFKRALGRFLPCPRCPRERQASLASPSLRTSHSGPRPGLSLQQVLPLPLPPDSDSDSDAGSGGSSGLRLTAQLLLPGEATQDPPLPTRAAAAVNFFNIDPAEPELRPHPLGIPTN
- RUN_DESCRIPTION: In vitro affinity for human 5-HT6 receptors, [3H]-LSD binding in CHO cell membranes
- Set-up: host or cells: CHO/Gα16/mtAEQ/h5HT6-A1 (CHO AequoScreen recombinant cell line)
- SETUP_CONDITIONS: [3H]-LSD 5.0 nM, membranes of CHO cells transfected with human 5-HT6; read-out: 5-HT6 pKi (converted)
I'd appreciate it if you could supply log10 of Ki values for the items below.
Hello, just confirming the data are log10 of Ki with units of nM.

Below, 4 compounds whose answers are already recorded.
CCN/C(=N\S(=O)(=O)c1cccc(Cl)c1)N1CC(c2ccccc2)C=N1 (stereo not shown)
2.40
CCN/C(=N\S(=O)(=O)N(C)c1ccccc1)N1CC(CC)C=N1 (stereo not shown)
2.50
CCN/C(=N\S(=O)(=O)c1cccc(Cl)c1)N1N=CC(CC)C1c1ccccc1 (single isomer, unassigned) [cis(+)-153]
3.10
CCN/C(=N\S(=O)(=O)c1cccc(Cl)c1)N1N=C(C(C)C)CC1c1ccccc1 (stereo not shown)
2.30

Please report log10 of Ki for every entry that follows.
1. CCN/C(=N\S(=O)(=O)c1cccc(Cl)c1)N1N=CC2CN(C)CCC21 (stereo not shown)
2. CCN/C(=N\S(=O)(=O)c1cccc(Cl)c1)N1N=CC(C)C1c1ccccc1 (stereo not shown)
3. CCN/C(=N\S(=O)(=O)c1c(Cl)nc2sccn12)N1CC2(C=N1)CCCC2
4. CCN/C(=N\S(=O)(=O)c1cccc(Cl)c1)N1CC2(C=N1)CCN(C)CC2

1: 1.00; 2: 2.20; 3: 0.20; 4: 0.80

----------
- ASSAY_SYSTEM: UniProt:P50406
- RUN_DESCRIPTION: In vitro functional activity (antagonism) on human 5-HT6 receptors, CHO-human-5HT6-Aequorin assay
- Format: cell-based
- Set-up: host or cells: CHO/Gα16/mtAEQ/h5HT6-A1 (CHO AequoScreen recombinant cell line)
- SETUP_CONDITIONS: antagonism of 10^-8 M α-methylserotonin induced luminescence, CHO-human-5HT6-Aequorin cells; read-out: 5-HT6 pA2 (converted)
MEASURED_PROPERTY: Kb (nM)
Answers are plain numbers, in nM.

CCN/C(=N\S(=O)(=O)c1cccc(Cl)c1)N1N=CCC1c1cccs1 (centres unmarked) [compound 150]
31.6

Please report Kb for every entry that follows.
1. CCN/C(=N\S(=O)(=O)c1cc2ccccc2s1)N1CC(CC)C=N1 (centres unmarked) [compound 89]
2. CCN/C(=N\S(=O)(=O)c1cccc(Cl)c1)N1CC2(C=N1)CCN(C)CC2 [compound 157]
3. CCN/C(=N\S(=O)(=O)c1cccc(Cl)c1)N1N=CCC1c1ccoc1 (centres unmarked) [compound 146]
4. CCN/C(=N\S(=O)(=O)c1cccs1)N1CC(CC)C=N1 (centres unmarked) [compound 51]
5. N/C(=N\S(=O)(=O)c1c(Cl)nc2sccn12)N1CC2(C=N1)CCOCC2 [compound 164]
6. N/C(=N\S(=O)(=O)c1cccc(Cl)c1)N1CC2(C=N1)CCOCC2 [compound 161]
7. CCN/C(=N\S(=O)(=O)c1cccc(Cl)c1)N1N=CCC1c1ccccn1 (centres unmarked) [compound 147]

1: 0.794; 2: 7.94; 3: 39.8; 4: 200; 5: 39.8; 6: 100; 7: 794

----------
MEASURED_PROPERTY: melting point

CCN/C(=N\S(=O)(=O)c1ccccc1)N1CC(CC)C=N1 (stereo not drawn)
43 to 45 °C
CN(C)/C(=N\S(=O)(=O)c1ccc(F)cc1)N1CCC(c2ccc(Cl)cc2)=N1
149 to 150 °C
CCN/C(=N\S(=O)(=O)c1ccc(Cl)cc1)N1CC(CC)C=N1 (stereo not drawn)
84 to 86 °C

Please report melting point for every entry that follows.
1. CCC1C=NN(/C(=N/S(=O)(=O)c2ccccc2Cl)Nc2ccccc2)C1 (stereo not drawn)
2. CCN/C(=N\S(=O)(=O)c1ccccc1Cl)N1N=CCC1c1ccccc1 (stereo not drawn)
3. CCC1C=NN(/C(N)=N/S(=O)(=O)c2cccc(Cl)c2)C1 (stereo not drawn)
4. CCN/C(=N\S(=O)(=O)c1ccc(N)cc1)N1CC(CC)C=N1 (stereo not drawn)
5. CCC1C=NN(/C(=N/S(=O)(=O)c2ccccc2Cl)N(C)C)C1 (stereo not drawn)
6. CC1=NN(/C(N)=N/S(=O)(=O)c2c(Cl)nc3sccn23)CC1(C)C
7. N/C(=N\S(=O)(=O)c1cccc(Cl)c1)N1CC2(C=N1)CCCC2
8. CCC1C=NN(/C(N)=N/S(=O)(=O)c2ccccc2Cl)C1 (stereo not drawn)

1. 128 to 130 °C
2. 164 to 166 °C
3. 141 to 142 °C
4. 122 to 125 °C
5. 94 to 95 °C
6. 169 to 171 °C
7. 146 to 147 °C
8. 161 to 163 °C

Please report melting point for every entry that follows.
1. CCN/C(=N\S(=O)(=O)c1ccccc1Cl)N1CCC(CC)=N1
2. CCC1C=NN(/C(=N/S(=O)(=O)c2ccccc2Cl)N2CCNCC2)C1 (stereo not drawn)
3. CCC1CN(/C(N)=N/S(=O)(=O)c2cccc(Cl)c2)N=C1C (stereo not drawn)

1. 91 to 93 °C
2. 162 to 173 °C
3. 121 to 123 °C

Dear colleague, I am looking for the recorded melting point of the following molecule: CCN/C(=N\S(=O)(=O)c1cccc2ccccc12)N1CC(CC)C=N1 (stereo not drawn)
79 to 80 °C

----------
- ASSAY_SYSTEM: 5-HT6 receptor (Homo sapiens, UniProt P50406)
- RUN_DESCRIPTION: In vitro affinity for human 5-HT6 receptors, [3H]-LSD binding in CHO cell membranes
- Design: host or cells: CHO/Gα16/mtAEQ/h5HT6-A1 (CHO AequoScreen recombinant cell line)
- SETUP_CONDITIONS: [3H]-LSD 5.0 nM, membranes of CHO cells transfected with human 5-HT6; read-out: 5-HT6 pKi (converted)
MEASURED_PROPERTY: Ki

Please report Ki for every entry that follows.
1. CCN/C(=N\S(=O)(=O)c1cccs1)N1CC(CC)C=N1 (stereo not drawn) [compound 51]
2. N/C(=N\S(=O)(=O)c1ccc(Cl)s1)N1CC2(C=N1)CCOCC2 [compound 167]
3. CCC1CN(/C(N)=N/S(=O)(=O)c2c(Cl)nc3sccn23)N=C1C (stereo not drawn) [compound 130]
4. CN/C(=N\S(=O)(=O)c1ccc(Cl)s1)N1CC(C)(C)C=N1 [compound 103]
5. CCN/C(=N\S(=O)(=O)c1cccc(Cl)c1)N1N=CCC1c1ccncc1 (stereo not drawn) [compound 148]
6. CCN/C(=N\S(=O)(=O)c1cccc2nsnc12)N1CC(CC)C=N1 (stereo not drawn) [compound 78]
7. CN/C(=N\S(=O)(=O)c1c(Cl)nc2sccn12)N1CC2(C=N1)CCOCC2 [compound 163]

1: 0.126 µM; 2: 0.0631 µM; 3: 0.0794 µM; 4: 0.0794 µM; 5: 0.501 µM; 6: 0.0631 µM; 7: 0.251 µM

Please report Ki for every entry that follows.
1. CCN/C(=N\S(=O)(=O)c1cccc(Cl)c1)N1N=CCC1c1ccoc1 (stereo not drawn) [compound 146]
2. CCN/C(=N\S(=O)(=O)c1ccc(Cl)s1)N1CC(C)(C)C(C)=N1 [compound 112]

1: 0.02 µM; 2: 0.2 µM

meta.source: patent US8722887B2
